- Subject Of Test: T1, human OT7T175 (metastin receptor) (human, UniProt Q969F8 1-398)
- T1 construct: expressed on CHO cells (hOT7T175-expressed CHO cells; hOT7T175/CHO); also called hOT7T175; h0T7T175
- Test Name: FMAT competition with Cy-5-labeled metastin (40-54), hOT7T175-expressed CHO cells
Square brackets hold non-standard residues; d marks the D form. Primed or numbered codes have the meaning given here. Ends that are not written are not given here. Arg(Me) = CNC(=N)NCCC[C@H](N)C(=O)O; Diphenylacetyl′ = not defined here; Cha = N[C@@H](CC1CCCCC1)C(=O)O; azaGly = NNC(=O)O
IC50 by entry:
Give a bare numeral; the unit nM is implied.

Worked examples, 2 binders total:
# Binder, Unit, IC50
records = [
    ("{Diphenylacetyl′}-NSF[azaGly]L[Arg(Me)]F-NH2 [Compound No. 268: des(1-3)-Diphenylacetyl-[AzaGly7,Arg(Me)9]MS10]", "nM", 550),
    ("[dY]NWNSF[azaGly]LR(Me)F-NH2 [Compound No. 232: [D-Tyr1,AzaGly7,Arg(Me)9]MS10]", "nM", 49),
]

// next entry
[Q] Fill blank: measured IC50 of the binder [dY]N[Cha]NS[Cha]GL[Arg(Me)]F-NH2 [Compound No. 181: [D-Tyr1,Cha3,6,Arg(Me)9]MS10] is ____.
[A] 19

The measured values listed here are drawn from patent US20060241051A1.
